- assayed-target: rabbit heart isoproterenol-stimulated adenylate cyclase
- measurement-description: rabbit heart isoproterenol-stimulated adenylate cyclase
- Type: biochemical
- cond: Table I, footnote ++ present invention; read-out: Adenylate Cyclase Ki, Heart (G)
Counter-ions that a name gives are not always drawn.
measurement-type: Ki (nM)

- compound: "CC(C)(C)NCC(O)CON=C1c2ccccc2-c2ccccc21 (stereo not shown) [IPS 339, hydrochloride]"
  measurement-type: "Ki"
  observed: 840

###

- assayed-target: rabbit ciliary process adenylate cyclase (beta2-adrenergic receptors) (Oryctolagus cuniculus, UniProt G1TAV7)
- Construct: Homogenates or washed particulate preparations (10 mg/ml) in 6 mM Tris-maleate, pH 7.4, are prepared from the various tissues to be studied
- Sequence (G1TAV7 1-437): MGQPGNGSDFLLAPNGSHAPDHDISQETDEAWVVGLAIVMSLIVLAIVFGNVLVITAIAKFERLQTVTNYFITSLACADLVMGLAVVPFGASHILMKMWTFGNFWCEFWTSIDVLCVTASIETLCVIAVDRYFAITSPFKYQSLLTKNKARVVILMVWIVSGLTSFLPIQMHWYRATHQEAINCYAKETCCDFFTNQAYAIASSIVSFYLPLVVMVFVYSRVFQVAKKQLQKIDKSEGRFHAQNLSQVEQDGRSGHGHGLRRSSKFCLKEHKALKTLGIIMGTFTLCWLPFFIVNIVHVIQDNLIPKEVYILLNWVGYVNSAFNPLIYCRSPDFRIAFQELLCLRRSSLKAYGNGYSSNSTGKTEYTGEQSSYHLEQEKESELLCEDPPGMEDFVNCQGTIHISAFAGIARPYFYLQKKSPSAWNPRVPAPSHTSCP
- measurement-description: rabbit ciliary process isoproterenol-stimulated adenylate cyclase
- cond: Table III; rabbit ciliary process, isoproterenol-stimulated
We begin with a simple list: items and their reported Ki.

- compound: "Cc1ccc(C(O)C(C)NC(C)C)cc1 (centres unmarked)"
  Ki: "0.79 µM"
- compound: "CC(=O)Nc1ccc(OCC(O)CNC(C)C)cc1 (centres unmarked)"
  Ki: "21 µM"
- compound: "CC(C)NCC(O)COc1ccc(CC(N)=O)cc1 (centres unmarked)"
  Ki: "11 µM"
- compound: "COc1ccc(OC)c(C(O)C(C)NC(C)(C)C)c1 (centres unmarked)"
  Ki: "1.4 µM"
- compound: "CC(C)(C)NC[C@H](O)COc1nsnc1N1CCOCC1"
  Ki: "0.0045 µM"

Cited source: patent US4652586A
